# RUN_DESCRIPTION: Toxicity liver stage against HepG2, at 10uM
# Type: cell-based
# Set-up: test concentration 10 uM, cell line HepG2-A16-CD81EGFP
# CONDITION_LABEL: human, HepG2-A16-CD81EGFP cells; read-out: INHIBITION

MOLECULE | cytotoxicity at 10 µM
Cn1nc(C(C)(C)C)cc1NC(=O)CSc1nnc[nH]1 | 0.353%
CC(=O)N[C@@H]1CN(C(=O)c2ccoc2)C[C@H]1c1ccc(C)cc1 | 16.2%
CC(C)COCC(NC(=O)c1cnccn1)c1ccco1 (stereo not drawn) | -13.8%
Cc1c(F)cccc1S(=O)(=O)Nc1noc(C(C)C)n1 | 7.21%
CCOc1ccc(CN2CCC(c3ccn[nH]3)C2)cc1CO (stereo not drawn) | 0.845%
CN(Cc1ccsc1)C(=O)CS(=O)(=O)Cc1ccc(Cl)c(Cl)c1 | -0.987%
Cc1nn(C)c(C)c1C1CCCN1Cc1nc2ccccc2c(=O)[nH]1 (stereo not drawn) | -15.9%
c1cnc(N2CCCC3(COCCN(CC4CC4)C3)C2)nc1 (stereo not drawn) | 3.22%
COCC(=O)NC(Cc1cc(N(C)C)nc(C2CC2)n1)c1ccccc1 (stereo not drawn) | 3.03%
Cn1c(C2CC2)nc2c1CCN(CC(=O)NC1CCCCNC1=O)C2 (stereo not drawn) | 3.73%
CN(Cc1ccc(F)cc1F)Cc1cc2c(cc1Br)OCCO2 | -111%
O=C(Cc1ccc(F)cc1Cl)N1CC[C@H](CO)[C@@H](O)C1 | 8.08%
CN(C)CCN1CC2(CCCN(c3ccc(Cl)cn3)C2)CCC1=O (stereo not drawn) | 2.69%
COc1cccc([C@H]2CN(CCCS(=O)(=O)N(C)C)C[C@@H]2N)c1 | -1.18%
Cc1nc(CN2CCCN(C(=O)c3cccn3C)CC2)cs1 | -2.06%
Cc1cc2c(N3CCC(N(C)Cc4cnn(C)c4)CC3)ncnc2s1 | -1.13%
CCn1nnc2c1C(COCCN(C)C)CN(Cc1ccc(C)s1)C2 (stereo not drawn) | 4.44%
CCCC(=O)N1CCc2c(CNS(C)(=O)=O)cncc2C1 | 4.36%
CN1CC(=O)N(c2cccc(F)c2)CC12CCN(S(=O)(=O)C1CC1)C2 (stereo not drawn) | -71.8%
COc1cc(CN2CCCC[C@]3(C)NC(=O)CC[C@H]23)ccc1F | -2.32%
COC(=O)CCC(=O)N1CCc2nc(C(=O)N3CCCCC3)sc2CC1 | 15.4%
O=C(c1ccncc1)N1CCN2C[C@H](Oc3cccnc3)C[C@H]2C1 | 2.83%
COCC(=O)N1C[C@H]2CN(Cc3csc(C)n3)C(=O)[C@H]2C1 | -77.2%

---

# RUN_DESCRIPTION: Toxicity liver stage against HepG2, at 10uM
# Format: cell-based
# Parameters: test concentration 10 uM, cell line HepG2-A16-CD81EGFP
# CONDITION_LABEL: human, HepG2-A16-CD81EGFP cells; read-out: INHIBITION
METRIC: cytotoxicity at 10 µM (%)

MOLECULE | METRIC | READING
CC(=O)N1CCC2(CCN(CC3CCCCC3)C2)CC1 | cytotoxicity at 10 µM | 2.05
CC(=O)N1CCc2[nH]nc(C(=O)N3CCOCC3)c2C1 | cytotoxicity at 10 µM | -7.37
CCCSc1nc(O)c(CC)c(=O)n1-c1ccccc1 | cytotoxicity at 10 µM | 2.77
O=C(NC1CC1)[C@H]1C[C@H]2OCC[C@H]2N(Cc2ccco2)C1 | cytotoxicity at 10 µM | 8.88
Cc1cccnc1CN(C)CC1(O)CCCN(CC2CCCCC2)C1=O (stereo unspecified) | cytotoxicity at 10 µM | -4.09
O=C(c1coc(COc2cccc(F)c2)n1)N1CC[C@H](O)[C@@H](O)C1 | cytotoxicity at 10 µM | -11
CCc1ccc(OCC(O)CN2CCN(CC)CC2)cc1 (stereo unspecified) | cytotoxicity at 10 µM | -6.54
Cc1cccc(N2CCOCC3(C2)CN(c2ccoc2)C(=O)CO3)n1 (stereo unspecified) | cytotoxicity at 10 µM | 4.39
CCn1c(C)nc2cc(NC(=O)CC3CCN(S(C)(=O)=O)CC3)ccc21 | cytotoxicity at 10 µM | 4.39
COc1ccc(CCNC(=O)Cn2ncc3c2c(C)nn3C)cc1 | cytotoxicity at 10 µM | 8.93
COC(=O)CN(C(=O)c1ccoc1)c1cccc(F)c1 | cytotoxicity at 10 µM | 5.42

---

Entries and their cytotoxicity at 10 µM
# RUN_DESCRIPTION: Toxicity liver stage against HepG2, at 10uM
# Format: cell-based
# Set-up: test concentration 10 uM, cell line HepG2-A16-CD81EGFP
# CONDITION_LABEL: human, HepG2-A16-CD81EGFP cells; read-out: INHIBITION

COMPOUND | UOM | cytotoxicity at 10 µM
Cc1ccncc1C(=O)N1CCCC(C(=O)CCc2ccccc2)C1 (configuration not stated) | % | 18
O=C(c1cc(C2CC2)on1)N1CCCC(n2cncn2)C1 (configuration not stated) | % | -14
Cc1cc(C)n(CCC(=O)N2CCCCC2c2nccs2)n1 (configuration not stated) | % | 10.3
O=C(Nc1cccn(Cc2ccc(F)cc2)c1=O)c1csnn1 | % | 1.51
CC(C)OCCNC(=O)C1CCC(=O)N(C2CCCC2)C1 (configuration not stated) | % | -12.5
Cc1nnc([C@@H]2CC[C@@H]3[C@@H](CCN3CC3CCOCC3)O2)o1 | % | 7.64
Cc1nc(CNC(=O)CCN2CCN(c3ccccn3)CC2)oc1C | % | -4.97
CN(C)S(=O)(=O)c1ccc(OCCNCCn2cccn2)cc1 | % | 0.626
Cc1cn(CC(=O)NC2CCC3(CC2)OCCO3)c2ccccc12 | % | -1.21
CC(C)S(=O)(=O)N(C)C(=O)CCc1ccsc1 | % | 5.2
Cc1cc(NCc2csc(C)n2)no1 | % | 9.48
COCCNC(=O)[C@H]1CN(Cc2scnc2C)C[C@H]2OCC[C@@H]12 | % | -8.94
Cc1cccc(CN2C(=O)CC[C@@H]3[C@H]2CCN3Cc2nccn2C)n1 | % | -81.9
O=C(Nc1ccccc1F)C1=NOC2(CCNCC2)C1 | % | 2.93
Cc1ccc(C(=O)N(CC(=O)O)CC(C)C)cc1F | % | -4.07
NC(=O)CN1CCCC1c1csc(Nc2cnccn2)n1 (configuration not stated) | % | -11.2
CN1CCN(C(=O)Cc2csc(-c3ccsc3)n2)C(c2ccccc2)C1 (configuration not stated) | % | -8.38
Cn1cccc1C(=O)NCc1cn2c(n1)CN(S(=O)(=O)C1CC1)CC2 | % | -114
Cn1nc(CN2CCCC2)c2c1CN(CC1CC1)CC2 | % | -3.27
CCn1cc(C(=O)N2C[C@H]3CC(Oc4ccccc4)C[C@H]3C2)cn1 (some centres not stated) | % | 5.75
O=C(NCCNc1ncccn1)C1CC(=O)N(Cc2ccccc2)C1 (configuration not stated) | % | -16.2
Cc1nc(C2CCCN2C(=O)CCc2ccc(F)cc2)ncc1C(N)=O (configuration not stated) | % | -15.7
Cc1ccc(-c2noc(CCC3CCN(C)CC3)n2)nn1 | % | -5.79
O=C(NCc1cnc2n1CCN(CC1CCOCC1)C2)c1ccno1 | % | -101
CN(Cc1cn(-c2ccccc2)nn1)C1CCCN(c2cccnn2)C1 (configuration not stated) | % | -20.5
CC(C)=CCCN1CCN(C)C2(CCC(=O)N(C)CC2)C1 (configuration not stated) | % | -54
c1cnc(N2CC3(CCN(C4CCOCC4)CC3)c3ccccc32)nc1 | % | -6.32
Cc1cc(C)n(-c2nc(C(=O)NCCS(=O)(=O)N3CCCCC3)cs2)n1 | % | -10.3
CN(Cc1ccccn1)C1CC2(CCN(Cc3cccnc3)CC2)C1 | % | 0.925
CNC(=O)C1CN(C(=O)c2ccncc2)CCN(S(C)(=O)=O)C1 (configuration not stated) | % | 6.67
Cc1cc(N(C)C)nc(C2(C)CCCN2C(=O)c2cncnc2C)n1 (configuration not stated) | % | -11.3
CC1=N[C@@]2(CC[C@@H]3CN(C(=O)NCC(C)C)C[C@@H]32)C(=O)N1C | % | 5.01
COCCN(C)CC(=O)N1CCCC2(CCC(=O)N(CC3CC3)C2)C1 (configuration not stated) | % | 0.502
Cc1noc(C)c1CN(C)C(=O)C1CCCc2ccccc21 (configuration not stated) | % | 2.45
CC(c1cccc(-c2nccn2CCc2cn[nH]c2)c1)N(C)C (configuration not stated) | % | -4.83
CC(=O)c1cc(Br)cc(F)c1OCC(=O)NC1CC1 | % | -6.16
CN(C)C(=O)c1cccc(CNc2ccc(C#N)cn2)c1 | % | -4.73
O=c1[nH]c(CCN2CCCC2Cn2cccn2)nc2ccccc12 (configuration not stated) | % | -8.05
COCC(=O)N1CCOC(c2ccc(N(C)C)cn2)C1 (configuration not stated) | % | -13.1
CNC(=O)CN1CCN(C(=O)Nc2ccc(Cl)cc2F)CC1 | % | 1.41
CCCN(C(=O)CNC1CCc2ncnn2C1)C1=CCCCC1 (configuration not stated) | % | 1.76
COCCn1cc(C(=O)N2CCCC(n3cncn3)C2)ccc1=O (configuration not stated) | % | -2.38
CCNCCC(Cc1ccccc1)c1ccco1 (configuration not stated) | % | 5.31
CN(C)C[C@@H]1CN(C(=O)Cc2cccc(O)c2)C[C@@H]1CO | % | 1.92
CCOCC(=O)NCC1Cn2nnc(-c3cccc(F)c3)c2CO1 (configuration not stated) | % | -1.29
CN1CCCN(c2cnn(Cc3ccncc3)c(=O)c2)CC1 | % | 6.75
COCCNC(=O)C1CCCN1S(=O)(=O)c1sc(=O)[nH]c1C (configuration not stated) | % | 2.17
